Attribution: paper PMC5540273

# Tested on: TTK
# REPORTED_CONDITIONS: concentration: 1 μM, replicates: in singlicate; n = 1;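 also: KINOMEscan kinase panel screen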
VALUE_KIND: %Inh (%)

[[record]]
structure_smiles_string = "Cl.N#CCc1ccc(Nc2nccc(Nc3ccc(Oc4ccccc4)cc3)n2)cc1"
obs_value = 11

[[record]]
structure_smiles_string = "CC(C)c1nc(-c2ccc(F)c(NS(=O)(=O)c3c(F)cccc3F)c2)c(-c2ccnc(Nc3ccc(N4CCOCC4)nc3)n2)s1"
obs_value = 52

[[record]]
structure_smiles_string = "CN(C)CCNS(=O)(=O)c1ccc(-c2ccnc3[nH]ccc23)cc1"
obs_value = 50

[[record]]
structure_smiles_string = "CCn1c(-c2nonc2N)nc2c(-c3ccccc3)ncc(OCCCN)c21.O=C(O)C(F)(F)F.O=C(O)C(F)(F)F"
obs_value = 0

[[record]]
structure_smiles_string = "COc1cccc(C2=C(Nc3cccc(O)c3)C(=O)NC2=O)c1"
obs_value = 10


* * *

# Test system: DRAK1
# Construct: gene STK17A
# REPORTED_CONDITIONS: concentration: 1 μM, replicates: in singlicate; n = 1
VALUE_KIND: %Inh (%)

[[record]]
molecule = "COc1cccc2c(-c3ccncc3)c(-c3ccc(F)cc3)nn12"
system = "DRAK1"
obs_value = 0

[[record]]
molecule = "Fc1cc(Cl)ccc1Nc1ccnc2cc(-c3ccc(CN4CCSCC4)o3)ccc12"
system = "DRAK1"
obs_value = 23

[[record]]
molecule = "COc1cc(Nc2ccnc3cc(-c4ccncc4)ccc23)cc(OC)c1OC.Cl"
system = "DRAK1"
obs_value = 0

[[record]]
molecule = "Cc1ccc(Nc2ccnc(Nc3ccc(C)c(F)c3)n2)cc1O.Cl"
system = "DRAK1"
obs_value = 0

[[record]]
molecule = "COc1cc(Nc2nccc(N3CCC(NS(=O)(=O)c4ccc(NC(C)=O)cc4)CC3)n2)cc(OC)c1OC"
system = "DRAK1"
obs_value = 0

[[record]]
molecule = "CC(C)NCC(Cc1ccccc1)NC(=O)c1cc(Br)c(-c2ccnc3[nH]ccc23)s1.Cl.Cl (stereo not drawn)"
system = "DRAK1"
obs_value = 0

[[record]]
molecule = "COc1ccc(NC(=O)c2ccoc2)cc1-c1ccc(C(=O)NCC2CC2)cc1"
system = "DRAK1"
obs_value = 6

[[record]]
molecule = "O=C(Nc1n[nH]c2nc(-c3ccccc3O)ccc12)C1CC1"
system = "DRAK1"
obs_value = 3

[[record]]
molecule = "CS(=O)(=O)c1cccc(CNc2nc(Nc3ccc4c(c3)CCC(=O)N4)ncc2C(F)(F)F)c1"
system = "DRAK1"
obs_value = 95.6

[[record]]
molecule = "CN(C)CCNS(=O)(=O)c1ccc(-c2ccnc3[nH]ccc23)cc1"
system = "DRAK1"
obs_value = 71

[[record]]
molecule = "Cn1cc(-c2cnc(N)c3c(-c4ccc5c(c4)CCN5C(=O)Cc4ccccc4)csc23)cn1"
system = "DRAK1"
obs_value = 0

[[record]]
molecule = "CN(c1ccc(NC(=O)N2CCN(CCCN3CCOCC3)CC2)cc1)c1ccnc(Nc2ccc(CS(C)(=O)=O)cc2)n1.Cl"
system = "DRAK1"
obs_value = 0

[[record]]
molecule = "N#Cc1cnc2cc(-c3cnc(CNCCN4CCOCC4)s3)ccc2c1Nc1ccc(Oc2ccccc2)cc1"
system = "DRAK1"
obs_value = 2

[[record]]
molecule = "CC(=O)Nc1cn2nc(Oc3cccc(NC(=O)c4cccc(C(F)(F)F)c4)c3)ccc2n1"
system = "DRAK1"
obs_value = 0

[[record]]
molecule = "Cl.O=C(Nc1ccc(Oc2ccc3[nH]c(NC(=O)c4ccco4)nc3c2)cc1)Nc1cc(C(F)(F)F)ccc1F"
system = "DRAK1"
obs_value = 0

